target: Arg261Gln (R261Q) PAH (Homo sapiens (Human), UniProt P00439, R261Q); assay: Phenylalanine hydroxylase residual protein amount (dot blot, COS-7 lysates); format: cell-based; conditions: COS-7 cells, compound 10 μM (sepiapterin 5 μM), 48 h; read-out: PAH protein level (immune blot signal) R261Q PAH Mean
Sequence (P00439 whole entry R261Q): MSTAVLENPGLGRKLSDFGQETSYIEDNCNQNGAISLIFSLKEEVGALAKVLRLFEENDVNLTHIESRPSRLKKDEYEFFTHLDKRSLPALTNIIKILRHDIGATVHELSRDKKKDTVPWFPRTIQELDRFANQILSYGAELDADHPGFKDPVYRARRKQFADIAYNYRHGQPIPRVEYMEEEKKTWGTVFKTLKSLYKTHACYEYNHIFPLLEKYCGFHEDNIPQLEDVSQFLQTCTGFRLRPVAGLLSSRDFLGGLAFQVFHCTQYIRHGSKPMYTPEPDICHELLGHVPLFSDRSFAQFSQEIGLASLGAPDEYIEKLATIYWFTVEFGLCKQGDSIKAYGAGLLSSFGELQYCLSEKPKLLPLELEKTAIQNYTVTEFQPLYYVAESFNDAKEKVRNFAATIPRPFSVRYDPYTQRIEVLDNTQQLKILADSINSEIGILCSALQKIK
Where a name gives a salt, the structure may show the parent alone.
PAH protein level (% of control) at 10 µM by entry:
Return type: number; implicit unit %.

Examples with answers:
{"COMPOUND": "CCC[S+]([O-])c1ccc2[nH]c(NC(=O)OC)nc2c1 (centres unmarked) [Ricobendazole]", "ASSAYED_SYSTEM": "Arg261Gln (R261Q) PAH (Homo sapiens (Human), UniProt P00439, R261Q)", "UNIT": "%", "MEASUREMENT": 104}
{"COMPOUND": "CN1CCc2cc3c(cc2C1O)OCO3 (centres unmarked) [Hydrastinine HCl]", "ASSAYED_SYSTEM": "Arg261Gln (R261Q) PAH (Homo sapiens (Human), UniProt P00439, R261Q)", "UNIT": "%", "MEASUREMENT": 141}

Need PAH protein level (% of control) at 10 µM, item Nc1nc(N)c2nc(-c3ccccc3)c(N)nc2n1 [Triamterene, 2,4,7-triamino-6-phenylpteridine]
130

And the next one, CC(C)[C@H](N)C(=O)OCCOCn1cnc2c(=O)[nH]c(N)nc21 [Valacyclovir HCl] ?
104

Entry Nc1cc(N2CCCCC2)nc(N)[n+]1[O-] [Minoxidil] please
96.1
